tested on: diazepam effect in the pentetrazole test; test: Antagonism of diazepam in the pentetrazole test; format: in vivo, mice; details: Mus musculus, po, 0.25 h; mice; diazepam 5 mg/kg i.p. 1 hour before pentetrazole 120 mg/kg i.p.; test compound p.o. 15 minutes before pentetrazole
Please use satisfied for ED50 under 5 mg/kg and not satisfied for everything else, ties included.

Does the reported ED50 of the following compound sit strictly below 5 mg/kg? CN1Cc2c(C(=O)OC(C)(C)C)ncn2-c2cccc(I)c2C1=O [(a) H I --CH3 O]
satisfied

----------
target: central benzodiazepine receptors (cerebral cortex); experiment: Inhibition of binding of tritiated diazepam at the specific benzodiazepine receptors in the cerebral cortex
measured-endpoint: IC50 (nM)
Unit nM implied. Number only.

Please review the following examples before continuing.
CN1Cc2c(C(=O)OC(C)(C)C)ncn2-c2ccccc2C1=O [(a) H H --CH3 O]; 3.3
CN1Cc2c(C(=O)OC(C)(C)C)ncn2-c2cccc(Br)c2C1=O [(a) H Br --CH3 O]; 2.3
CN1Cc2c(C(=O)OC(C)(C)C)ncn2-c2cccc(Cl)c2C1=O [(a) H Cl --CH3 O]; 3

In one line, give reported IC50 of the entry CN1Cc2c(C(=O)OC(C)(C)C)ncn2-c2cccc(C#N)c2C1=O [(a) H CN --CH3 O] .
10

Please report IC50 for the following compound: CN1Cc2c(C(=O)OC(C)(C)C)ncn2-c2cccc(I)c2C1=O [(a) H I --CH3 O]
2.6

# return recorded IC50 for entry CN1Cc2c(C(=O)OC(C)(C)C)ncn2-c2ccccc2C1=S [(a) H H --CH3 S]
8.9

Dear colleague, please send me the reported IC50 for CN1Cc2c(C(=O)OC(C)(C)C)ncn2-c2ccc(F)cc2C1=O [(a) F H --CH3 O] when you can.
1.4
